# STUDY_CONDITIONS: 293.15 K; 140000 kPa; Liquid; Vibrating wire viscometry
QUANTITY: viscosity (mPa·s)

As a guide, the following entries are already answered.
- COMPOUND_STRUCTURE_STRING: "Cc1ccc(C)c(C)c1"
  VALUE_REPORTED: 2.668
- COMPOUND_STRUCTURE_STRING: "CCCCCCCCCCCC"
  VALUE_REPORTED: 5.816

A. CC(C)CC(C)(C)C
B. CCCCCCC
Request: // pick min by viscosity: A , B Kindly give the label for the entry you pick.
Response: B

* * *

# STUDY_CONDITIONS: 313.15 K; 1000 kPa; Liquid; Vibrating wire viscometry
QUANTITY: viscosity (mPa·s)

As a guide, the following entries are already answered.
- COMPOUND_STRUCTURE_STRING: "CCCCCCCCCCCC"
  VALUE_REPORTED: 1.074
- COMPOUND_STRUCTURE_STRING: "Cc1ccccc1"
  VALUE_REPORTED: 0.4746
- COMPOUND_STRUCTURE_STRING: "CCCCCCC"
  VALUE_REPORTED: 0.3412

1. CC(C)CC(C)(C)C
2. Cc1ccc(C)c(C)c1
Request: // pick min by viscosity: 1 , 2 Kindly give the label for the entry you pick.
Response: 1

* * *

# STUDY_CONDITIONS: 333.15 K; 10000 kPa; Liquid; Vibrating wire viscometry
QUANTITY: viscosity (mPa·s)

- MOLECULE: "CCCCCCCCCCCC [dodecane]"
  UNIT_OF_MEASUREMENT: "mPa·s"
  viscosity: 0.8975
- MOLECULE: "CC(C)CC(C)(C)C [2,2,4-trimethylpentane]"
  UNIT_OF_MEASUREMENT: "mPa·s"
  viscosity: 0.3754

1. Cc1ccc(C)c(C)c1 [1,2,4-trimethylbenzene]
2. CCCCCCC [heptane]
Request: // pick min by viscosity: 1 , 2 Kindly give the label for the entry you pick.
Response: 2

* * *

# STUDY_CONDITIONS: 293.15 K; 10000 kPa; Liquid; Vibrating wire viscometry
QUANTITY: viscosity (mPa·s)

As a guide, the following entries are already answered.
- COMPOUND_STRUCTURE_STRING: "CCCCCCC"
  VALUE_REPORTED: 0.4579
- COMPOUND_STRUCTURE_STRING: "Cc1ccccc1"
  VALUE_REPORTED: 0.6387

A. CCCCCCCCCCCC
B. Cc1ccc(C)c(C)c1
C. CC(C)CC(C)(C)C
Request: Arrange these 3 molecules in increasing order of viscosity. List the labels, following the order given in the request.
Response: C, B, A
(C: 0.5733 mPa·s, B: 0.9769 mPa·s, A: 1.672 mPa·s)

* * *

# STUDY_CONDITIONS: 333.15 K; 5000 kPa; Liquid; Vibrating wire viscometry
QUANTITY: viscosity (mPa·s)

As a guide, the following entries are already answered.
- COMPOUND_STRUCTURE_STRING: "Cc1ccc(C)c(C)c1"
  VALUE_REPORTED: 0.5885
- COMPOUND_STRUCTURE_STRING: "Cc1ccccc1"
  VALUE_REPORTED: 0.3986
- COMPOUND_STRUCTURE_STRING: "CC(C)CC(C)(C)C"
  VALUE_REPORTED: 0.3515

I. CCCCCCC
II. CCCCCCCCCCCC
Request: // pick min by viscosity: I , II Kindly give the label for the entry you pick.
Response: I
